This listing pairs sequences with measured protein stability index.
Test: protein stability index of a GFP-peptide fusion (yeast GPS) (PSI 1-4); higher = more stable; sorted into four equal gates, so the index is relative within each strain
Settings: pdr5∆
Give the value as a plain number.

Worked examples, 3 sequences total:
>>> obs_value("KYISAELYAQLRENGLV [SNU114]")
2.99
>>> obs_value("VPATAAPGTEAGIVPVS [SWI1]")
3
>>> obs_value("AISTDKINPFGFEQVKI [RRI2]")
2.94

Kindly review the next sequence as well.
## Task Returns the measured protein stability index for the input sequence. Input: ANRSRFNNEAPPQTRKF [SMB1]
## Result 3.03

###

Assay: protein stability index of a GFP-peptide fusion (yeast GPS) (PSI 1-4); higher = more stable; sorted into four equal gates, so the index is relative within each strain
Conditions: ubr1∆
MEASURED_ENDPOINT: protein stability index
Give the value as a plain number.

>>> obs_value("LCLTEFENCYLEGNDIH [FAS1]")
2.95
>>> obs_value("AESEAITVTAKQQPTMQ [SWI3]")
3.04
>>> obs_value("IDKNHGFERLTVNEPQM [SRB7]")
3.02

## Task Returns the measured protein stability index for the input sequence. Input: EVTKSSHVENLEEKLYQ [YIL149C/MLP2]
## Result 2.98

## Task One more sequence: EKGSWEQLSPQDVLQML [BRR2]
## Result 3.03

## Task One more sequence: NYDTCGGESAYFFQLQI [RPC11]
## Result 2.94

## Task One more sequence: KFKHIDDKYGRKFALEK [SRP72]
## Result 3

## Task One more sequence: DNVNSTTGSIFEKDLMA [BRN1]
## Result 2.99

## Task One more sequence: QRLVTPQRLQRKRHQRA [RPS6A]
## Result 3.09

## Task One more sequence: VDDSMELCGQIRSERFK [ITC1]
## Result 2.94

## Task One more sequence: NLRHERNSLETKLTTCK [YIL149C/MLP2]
## Result 3.04

###

Assay: protein stability index of a GFP-peptide fusion (yeast GPS) (PSI 1-4); higher = more stable; sorted into four equal gates, so the index is relative within each strain
Details: pdr5∆
This listing pairs sequences with measured protein stability index.
Give the value as a plain number.

>>> obs_value("TISKTVSSTIPRETIPF [FAS2]")
2.96
>>> obs_value("SKRLPLRFPEHTSSGSV [BRR2]")
2.97
>>> obs_value("EEYDDDDDNSNVDYYNV [SNF2]")
2.93
>>> obs_value("AENMLEELRGQQTEHET [SMC4]")
2.97
>>> obs_value("QNTSNMNAGGLFGAKPQ [YGR119C/NUP57]")
3.05

## Task Returns the measured protein stability index for the input sequence. Input: PNIHQNLLPKKSAKTAK [HTA2]
## Result 3.09

## Task One more sequence: TTTTANINEVKKASDLV [NUT1]
## Result 3.07

## Task One more sequence: GQLGLDDNDVPGPLPDT [YLR018C/POM34]
## Result 2.94

###

Experiment: protein stability index of a GFP-peptide fusion (yeast GPS) (PSI 1-4); higher = more stable; sorted into four equal gates, so the index is relative within each strain
Details: doa10∆
MEASURED_ENDPOINT: protein stability index
Give the value as a plain number.

Worked examples, 5 sequences total:
>>> obs_value("NINAKMETRINILLRER [YIL149C/MLP2]")
2.98
>>> obs_value("SQISPEKQTPNKKDKKK [RPN1]")
2.95
>>> obs_value("KGDGMTSAVASIGSIYQ [RPN1]")
2.67
>>> obs_value("GLTTVWLLSALGNSIVK [REC8]")
1.61
>>> obs_value("RAPELLLGARHYTPAVD [SSN3]")
1.67

## Task Returns the measured protein stability index for the input sequence. Input: DQKTGRAKSSSHLFNEY [RPN4]
## Result 2.85

## Task One more sequence: QKCFKLTHRLGGDTCSS [POP1]
## Result 2.27

## Task One more sequence: FVKGISRDIKALQDSLF [YML103C/NUP188]
## Result 2.25

## Task One more sequence: ANGIINVKEITEKLKIS [SMC3]
## Result 2.81
